Test system: NCI-H460 lung
EXPERIMENTAL_PROTOCOL: NCI tumour cell line growth inhibition, 48 h
Answer each item with its documented TGI.

Which TGI value is on record for `N#Cc1cc(N(CCCl)CCCl)c([N+](=O)[O-])cc1[N+](=O)[O-]` ? > 100 µM

Which TGI value is on record for `C=C(C)[C@H]1C[C@@H]2O[C@@](O)(/C(C)=C\C(=O)/C=C(/C)C[C@H]3OC(=O)[C@@]24O[C@H]34)[C@@H]1O` ? > 100 µM

Which TGI value is on record for `CCN(CC)CCCCNc1ncc2cc(-c3cc(OC)cc(OC)c3)c(NC(=O)NC(C)(C)C)nc2n1` ? 20.8 µM

Which TGI value is on record for CC(C)(C)OC(=O)CC(NC(=O)OC(C)(C)C)C(=O)NC(C(=O)O)C(O)c1ccccc1 (stereo not given) ? > 100 µM

Which TGI value is on record for Cc1ccc2c(c1)C(C1Cc3cccc(C)c3C1=O)OC2=O (stereo not given) ? > 100 µM
